Reference source for all entries: ChEMBL document CHEMBL1201862

Tested on: SK-OV-3
assay.notes: NCI tumour cell line growth inhibition, 48 h
Calls of active or inactive are those of the source. Rule as the data show it: active = GI50 up to about 1.1 µM and inactive = higher.
quantity.kind: GI50

INSERT INTO assay_data (compound, result) VALUES
  ('CCc1cccc(CC)c1NC(=O)C1=CNC(C)=C(C(=O)Nc2c(CC)cccc2CC)C1c1ccc(O)c(OC)c1 (stereo unspecified)', '> 100 µM (inactive)'),
  ('COC(=O)C1(c2ccc(OC)cc2)NC(c2ccccc2)C2C(=O)N(c3ccc(OC)cc3)C(=O)C21 (stereo unspecified)', '> 100 µM (inactive)'),
  ('CC(C)N(Cc1ccccc1)S(=O)(=O)c1nc(C(C)(C)C)n[nH]1', '> 100 µM (inactive)'),
  ('Nc1ccc(-c2cc(C(=O)Nc3nccs3)nc(S)n2)cc1', '> 100 µM (inactive)'),
  ('COc1ccc2c(c1)OCC1(O)Cc3ccccc3OC21 (stereo unspecified)', '> 100 µM (inactive)'),
  ('COc1ccc2nc3c(C(=O)NCCN(C)C)cccc3nc2c1', '9.04 µM (inactive)'),
  ('COC(=NCCC1=CCCCC1)OC', '> 100 µM (inactive)'),
  ('CNNC1=NS(=O)(=O)c2cc(C(=O)OC)c(Cl)cc2S1', '> 10 µM (inactive)'),
  ('Cn1c(=O)c2c(nc3n(Cc4ccccc4)c(=O)c(NCCBr)cn23)n(C)c1=O', '25.3 µM (inactive)'),
  ('CC1CC[C@@]2(OC1)OC1C[C@H]3[C@@H]4CC=C5CC(OC6OC(CO)C(OC7OC(CO)C(O)C(OC8OCC(O)C(O)C8O)C7OC7OC(CO)C(OC8OC(C)C(OC9OC(C)C(O)C(O)C9O)C(O)C8O)C(O)C7O)C(O)C6O)CCC5(C)[C@H]4CCC3(C)C1[C@@H]2C (stereo partly specified)', '9.23 µM (inactive)'),
  ('Clc1ccc(-c2nnc(-c3cccc4ccccc34)o2)cc1Cl', '> 100 µM (inactive)');
